# Assay Comment: Pharmacokinetics and oral bioavailability of D11.2 in male SD rats (IV, PO, SQ)
# Format: in vivo
# Condition Info: male, Sprague Dawley, rat, plasma, po, 1 mg/kg, PO 1 mg/kg, Mean; read-out: T1/2z (converted)
Where a SMILES comes first, the peptide text is derived from it. [ ]: non-standard residue; d: D form. NMeL = CN[C@@H](CC(C)C)C(=O)O; Sar = CNCC(=O)O
Endpoint Label: half-life (h)
One number for each entry, in h.

Quick one: half-life for CC[C@@H](C)[C@H]1NC(=O)[C@@H]2CCCN2C(=O)[C@@H]([C@H](C)CC)NC(=O)CN(C)C(=O)[C@H](CC(C)C)NC(=O)[C@@H](Cc2ccccc2)NC(=O)[C@H](CC(C)C)N(C)C(=O)[C@H]2CCCN2C(=O)[C@@H](CC(C)C)NC(=O)[C@H](CC(C)C)NC(=O)[C@H]2CCCN2C1=O [Design D11.2] (cyclo(L[Sar][dI]P[dI][dP]L[dL][dP][NMeL][dF])) ?
2.33

All values here come from paper PMC9490236.
